B1: Probable E3 ubiquitin-protein ligase MID2, residues 191 to 235; numbered along this chain, Q9UJV3 (parent)
chain: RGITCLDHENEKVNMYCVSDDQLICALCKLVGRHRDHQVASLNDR

# Variants of: B1
# experiment: abundance fitness (aPCA) (normalised: wild type 0, dead -1); higher = more abundant; growth selection in yeast, the domain comes from the species named
# measurement.context: Homo sapiens
Is abundance fitness at least -0.2? Then rule met. If not, rule not met.

Completed entries (count: 3):
S19N: rule met
C28P: rule not met
N10K: rule not met

In the following, a different variant is considered.
Query block: Entry `V31Q` : is its abundance fitness no less than -0.2?
Result block: rule met

Sourced from the Human Domainome abundance scans (Beltran et al. 2025)
